Target: human PDE4B1 (Homo sapiens)
Construct: host or cells: Sf9 cells
Sequence (Q07343 whole entry): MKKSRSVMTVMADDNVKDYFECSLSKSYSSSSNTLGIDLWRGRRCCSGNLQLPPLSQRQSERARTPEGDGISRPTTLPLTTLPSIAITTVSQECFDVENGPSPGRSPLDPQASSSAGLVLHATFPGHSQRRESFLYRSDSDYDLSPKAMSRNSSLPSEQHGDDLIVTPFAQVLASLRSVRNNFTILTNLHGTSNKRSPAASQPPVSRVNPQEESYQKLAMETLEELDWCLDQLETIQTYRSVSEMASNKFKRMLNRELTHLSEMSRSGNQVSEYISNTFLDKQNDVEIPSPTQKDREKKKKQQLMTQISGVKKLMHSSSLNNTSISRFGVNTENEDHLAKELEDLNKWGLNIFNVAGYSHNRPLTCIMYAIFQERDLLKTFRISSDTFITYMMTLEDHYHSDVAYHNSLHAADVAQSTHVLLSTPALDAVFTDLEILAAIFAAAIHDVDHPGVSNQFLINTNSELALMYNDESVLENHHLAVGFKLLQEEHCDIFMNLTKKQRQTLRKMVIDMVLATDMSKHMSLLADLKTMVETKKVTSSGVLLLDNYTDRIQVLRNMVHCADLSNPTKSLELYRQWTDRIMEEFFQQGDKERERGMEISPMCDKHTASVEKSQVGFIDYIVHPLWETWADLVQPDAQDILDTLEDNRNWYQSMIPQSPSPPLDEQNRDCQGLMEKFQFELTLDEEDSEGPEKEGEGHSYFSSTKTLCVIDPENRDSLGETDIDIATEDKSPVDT
Assay: cAMP HTRF assay to determine the activity of hPDE4B1
Type: biochemical
Settings: inhibition of PDE4B at a test concentration of 1 μM
ENDPOINT: inhibition at 1 µM (%)
Enter your answer as a number in %; do not include the unit.

COMPOUND | MEASUREMENT
Cc1ccc(F)c(-c2cnc(-n3cc([S+](C)[O-])c4ccc(C(=O)N5CC[C@@H](N)C5)cc43)nc2)c1 (some centres unmarked) | 108
Cc1cccc(-c2cnc(-n3cc([S+](C)[O-])c4ccc(C(=O)N5CCOCC5)cc43)nc2)c1 (centres unmarked) [Example 37] | 103

Requested field: inhibition at 1 µM. Item: C[S+]([O-])c1cn(-c2ncc(-c3ccccc3F)cn2)c2cc(C(=O)N3CCC[C@@H](O)C3)ccc12 (some centres unmarked) 96

Requested field: inhibition at 1 µM. Item: C[S+]([O-])c1cn(-c2ncc(-c3ccccc3F)cn2)c2cc(C(=O)N3C[C@@H]4CCN[C@@H]4C3)ccc12 (some centres unmarked) 66

Requested field: inhibition at 1 µM. Item: C[S+]([O-])c1cn(-c2ncc(-c3ccccc3C#N)cn2)c2cc(C(=O)N3CCOCC3)ccc12 (centres unmarked) 74

Requested field: inhibition at 1 µM. Item: C[S+]([O-])c1cn(-c2ncc(-c3ccccc3F)cn2)c2cc(C(=O)N3C[C@@H]4C[C@H]3CN4)ccc12 (some centres unmarked) 101

Requested field: inhibition at 1 µM. Item: CC1CCCN1C(=O)c1ccc2c([S+](C)[O-])cn(-c3ncc(-c4ccccc4F)cn3)c2c1 (centres unmarked) 90
